tested on: A549 cells; assay: Cytotoxicity on human tumor line A549 (neutral red); type: cell-based; conditions: 96 hours incubation
Observation Type: IC50 (µM)
# output: bare number, implied unit µM

Need IC50, item `CSc1nc(Nc2ccc3nc(C)cc(N)c3c2)nc(OC2CCN(C)CC2)n1` 6

Recorded values, source patent US20030013711A1.
